// provenance: patent US20060003980A1

target: FGF receptor (FGFr) (Homo sapiens); assay: Tyrosine kinase activity of FGFr using poly E4Y and 32P-ATP; assay type: biochemical
Sequence (P11362 398-822): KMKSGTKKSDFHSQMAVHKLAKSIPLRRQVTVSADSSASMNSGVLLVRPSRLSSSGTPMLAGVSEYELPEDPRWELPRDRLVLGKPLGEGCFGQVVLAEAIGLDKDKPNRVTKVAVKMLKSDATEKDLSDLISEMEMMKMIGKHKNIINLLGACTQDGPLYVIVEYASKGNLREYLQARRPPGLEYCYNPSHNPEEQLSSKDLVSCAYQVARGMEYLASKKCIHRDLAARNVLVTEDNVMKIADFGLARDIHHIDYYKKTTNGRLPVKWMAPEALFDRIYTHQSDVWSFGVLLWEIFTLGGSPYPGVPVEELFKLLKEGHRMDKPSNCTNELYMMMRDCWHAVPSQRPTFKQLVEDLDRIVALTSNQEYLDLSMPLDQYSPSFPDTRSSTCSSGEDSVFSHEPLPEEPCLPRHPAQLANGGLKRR
IC50 for assorted compounds
Answer in µM, number only, no unit symbol.

Solved cases (3 shown):
compound | tested.on | readout.name | recorded.measurement
NC(=O)C(N)Cc1ccc(O)cc1.[Cl-].[Cl-].[Co+2] (stereo not shown) [Complex 14] | FGF receptor (FGFr) (Homo sapiens) | IC50 | 20
N[C@H](c1ccccc1)[C@@H](N)c1ccccc1.N[C@H](c1ccccc1)[C@@H](N)c1ccccc1.[Cl][Co][Cl].[Cl][Co][Cl] [Complex 27] | FGF receptor (FGFr) (Homo sapiens) | IC50 | 17
[Cl][Co]([Cl])([PH](c1ccccc1)(c1ccccc1)c1ccccc1)[PH](c1ccccc1)(c1ccccc1)c1ccccc1 [Complex 37] | FGF receptor (FGFr) (Homo sapiens) | IC50 | 76

The record that follows has no IC50 shown yet.
Given item NC(=O)C(N)Cc1c[nH]c2ccccc12.[O-][Cl+3]([O-])([O-])[O][Co][O][Cl+3]([O-])([O-])[O-] (stereo not shown) [Complex 13] , the value recorded as its IC50 is 54
